assay: S. cerevisiae RM11-1a growth modifiers, primary screen, strain RM11-1a, OD600, basal, 24 h (AID 1177); details: OD600, 24 h, higher = more signal, called active from +8 up or from −8 down;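 note: cultures grown under basal conditions with no added stressor; test concentration not given here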
# binarize z-score: threshold 0.4 inclusive, high side Fulfilled, low side Not fulfilled

Recorded results for 3 compounds are shown here.
# check: z-score of CC1CC/C=C\[C@H]2OC34C=CCN(Cc5ccccc5)C(=O)[C@H]3N(CCCO)C(=O)[C@@H]4C2C(=O)O1 (some centres not stated) is greater than or equal to 0.4 Not fulfilled

# check: z-score of "NCCCCCCNC(=O)[C@@H]1C[C@@H]2C(=O)NCC(=O)N2[C@@H]1c1ccc(O)cc1" is greater than or equal to 0.4 Fulfilled

# check: z-score of "COC(=O)[C@@]1(Cc2ccc(F)cc2)[C@H]2c3cc(C(=O)N(C)C)n(Cc4ccccc4)c3C[C@H]2CN1C(=O)c1ccccc1" is greater than or equal to 0.4 Fulfilled

Others:
# check: z-score of "COC(=O)[C@@]1(Cc2ccc(OC)cc2)[C@H]2c3cc(C(=O)N(C)C)n(Cc4ccc(S(C)(=O)=O)cc4)c3C[C@H]2CN1C(=O)c1ccccc1" is greater than or equal to 0.4 Not fulfilled

# check: z-score of OCCCC1=CC(c2cccs2)N(Cc2cc3c(cc2Br)OCO3)CC1 (configuration not stated) is greater than or equal to 0.4 Not fulfilled

# check: z-score of "COC(=O)[C@@]1(Cc2ccc(OC)cc2)[C@H]2c3cc(C(=O)N4CCCC4)n(Cc4ccc(O)c(OC)c4)c3C[C@H]2CN1C(=O)c1ccccc1" is greater than or equal to 0.4 Fulfilled

# check: z-score of "O=C1c2ccccc2[C@](Cc2ccccc2I)(C(=O)NCCN2CCOCC2)[C@H](c2ccc(CO)cc2)N1C1CCCCC1" is greater than or equal to 0.4 Not fulfilled

###

assay: small-molecule binders of probe aInhba, primary screen, biochemical, small-molecule microarray, 635/667 nm fluorescence (AID 1148); conditions: higher = more signal;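 note: score merges 667nm spot fluorescence with signal-to-noise for antibody binding to printed compounds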
# binarize composite z-score: threshold -0.02 inclusive, high side Yes, low side No

Recorded results for 3 compounds are shown here.
# check: composite z-score of "COC(=O)[C@H](Cc1ccccc1)N1CC2=C[C@@H](C3CC3)n3c(=O)n(C)c(=O)n3[C@H]2[C@@H]1[C@@H](O)Cc1ccccc1" is greater than or equal to -0.02 No

# check: composite z-score of OCCCC1=CC(c2cccs2)N(Cc2cc3c(cc2Br)OCO3)CC1 (centres undefined) is greater than or equal to -0.02 No

# check: composite z-score of "CCCC[C@H]1OB(O)C[C@H]2C1=C(COC)Cn1c(=O)n(-c3ccccc3)c(=O)n12" is greater than or equal to -0.02 No

Others:
# check: composite z-score of "COCCOC(=O)N1C(=O)[C@@]2(c3cc(C#CC4(O)CCCCCC4)ccc31)[C@H](c1ccc(OCCO)cc1)N1[C@H](c3ccccc3)[C@H](c3ccccc3)OC(=O)[C@H]1[C@@H]2C(=O)N1CCN(c2ncccn2)CC1" is greater than or equal to -0.02 Yes

# check: composite z-score of "CCCC[C@@H]1C[C@H]1[C@@H](NC(=O)C(C)(C)C)c1ccc(C(F)(F)F)cc1" is greater than or equal to -0.02 No

# check: composite z-score of "NC(=O)NCC#Cc1ccc2c(c1)[C@]1(C(=O)N2)[C@H](C(N)=O)[C@H]2C(=O)O[C@H](c3ccccc3)[C@H](c3ccccc3)N2[C@@H]1c1ccc(O)cc1" is greater than or equal to -0.02 Yes

# check: composite z-score of CC(C)=CCCC(C)=CC(O)C1C=CC2C(=O)N(C)C(=O)C2N1Nc1ccccc1 (centres undefined) is greater than or equal to -0.02 Yes

# check: composite z-score of CCCCCN1CC=CC23O[C@@H]4/C=C\CCC(C)OC(=O)C4[C@H]2C(=O)N(C(C)CO)[C@@H]3C1=O (some centres undefined) is greater than or equal to -0.02 No
